Target: human MyD88 (human) (UniProt Q99836)
Experiment: P8 phage display panning on plate-immobilised MyD88, after round 4, NGS
fulfilled means recorded Population is 2% or above; not fulfilled means it is below 2%.

For orientation, consider the following solved cases.
binder=QLIQQWIELHLHQLHL answer_label="not fulfilled"
binder=WALDELLQILHARELF answer_label=fulfilled
binder=VQWDDPWFWDKLAYAM answer_label="not fulfilled"
binder=VANILGYHWIDWEYFV answer_label="not fulfilled"
binder=DPQDLQWFYERLVSLI answer_label=fulfilled

stdin: Tell me whether Population is at least 2% here: `PQDLEWFYERLVSLIL`
stdout: fulfilled

Cited source for all entries: patent EP4613859A1
